Where these numbers come from: patent US10695334B2

- target_or_system: PKK in kaolin activated human platelet poor plasma (Homo sapiens (Human), UniProt P03952)
- Sequence (P03952 391-638): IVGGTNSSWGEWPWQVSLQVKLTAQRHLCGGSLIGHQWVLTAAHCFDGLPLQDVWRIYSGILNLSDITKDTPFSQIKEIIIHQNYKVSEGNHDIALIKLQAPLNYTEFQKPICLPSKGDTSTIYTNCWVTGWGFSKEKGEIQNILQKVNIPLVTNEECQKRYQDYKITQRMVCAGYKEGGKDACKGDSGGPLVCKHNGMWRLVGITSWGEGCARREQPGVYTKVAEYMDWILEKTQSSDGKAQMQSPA
- Sequence (P03952 20-390 partner): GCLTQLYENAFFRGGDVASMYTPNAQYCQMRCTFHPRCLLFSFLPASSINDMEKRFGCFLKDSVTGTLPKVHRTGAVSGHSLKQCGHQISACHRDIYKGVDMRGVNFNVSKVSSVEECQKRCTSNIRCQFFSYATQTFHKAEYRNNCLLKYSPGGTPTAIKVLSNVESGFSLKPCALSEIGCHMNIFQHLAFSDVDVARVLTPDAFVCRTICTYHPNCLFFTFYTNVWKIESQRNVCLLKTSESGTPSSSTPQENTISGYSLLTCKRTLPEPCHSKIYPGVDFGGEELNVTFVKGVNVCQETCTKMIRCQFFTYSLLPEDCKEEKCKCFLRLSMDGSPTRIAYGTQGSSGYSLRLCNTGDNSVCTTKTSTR
- assay_explanation: Inhibition of PKK in kaolin activated human PPP
- Type: biochemical
- assay_context: global fit over 25, 75, 250, 750 μg/mL kaolin
measure: IC90 (nM)

Use these answered entries as a reference point.
compound=Cc1nc(N2CCC3(CCC3)C2)ccc1Cn1cc(C(=O)N[C@@H]2CCc3c2n[nH]c3C)cn1 measure_unit=nM quantitative_readout=4670
compound=Cc1nc(N2CC3(CCC3)C2)ccc1Cn1cc(C(=O)N[C@@H]2CCc3c2n[nH]c3C)cn1 measure_unit=nM quantitative_readout=944
compound="Cc1nc(N2CC3CC3C2)ccc1Cn1cc(C(=O)N[C@@H]2CCc3c(C)n[nH]c32)c(Cl)n1 (stereo partly drawn)" measure_unit=nM quantitative_readout=3090
compound="Cc1nc(N2CC3CC3C2)ccc1Cn1nnc(C(=O)N[C@@H]2CCc3c(C)n[nH]c32)n1 (stereo partly drawn)" measure_unit=nM quantitative_readout=3480
compound="Cc1nc(N2CC3CC3C2)ccc1Cc1c[nH]c(C(=O)N[C@@H]2CCc3c(C)n[nH]c32)c1 (stereo partly drawn)" measure_unit=nM quantitative_readout=342

[I] Cc1nc(N2CC3CC3C2)ccc1Cn1cc(C(=O)N[C@@H]2CCc3c2n[nH]c3C)nc1C(F)(F)F (stereo partly drawn)
[II] Cc1nc(N2CCCC2)ccc1Cn1cc(C(=O)N[C@@H]2CCc3c2n[nH]c3C)cn1
**Q:** Which entry has a larger number for IC90, I or II ? Write down the label attached to your selection.
**A:** II
(II: 5120 nM, I: 3140 nM)

[1] Cc1[nH]nc2c1CC[C@H]2NC(=O)c1cn(Cc2ccc(N3CC4CC4C3)nc2)cn1 (stereo partly drawn)
[2] Cc1nc(N2CC3CC3C2)ccc1Cc1csc(C(=O)N[C@@H]2CCc3c(C)n[nH]c32)c1 (stereo partly drawn)
[3] Cc1nc(N2CC3CC3C2)ccc1Cc1cc(C(=O)N[C@@H]2CCc3c(C)n[nH]c32)sc1C#N (stereo partly drawn)
[4] Cc1nc(N2CC(C)(F)C2)ccc1Cn1cc(C(=O)N[C@@H]2CCc3c2n[nH]c3C)cn1
**Q:** Arrange the 4 compounds by rising IC90, starting with the smallest. I would appreciate it if you listed the labels in the requested order.
**A:** 2, 1, 4, 3

###

- target_or_system: Human PKK (Homo sapiens (Human), UniProt P03952)
- Sequence (P03952 391-638): as the sequence (P03952 391-638) above
- Sequence (P03952 20-390 partner): as the sequence (P03952 20-390 partner) above
pIC50: −log10 of the molar value.
measure: pIC50

Use these answered entries as a reference point.
compound=Cc1nc(N2C[C@@H]3[C@@H](CO)[C@@H]3C2)ccc1Cn1cc(C(=O)N[C@@H]2CCc3c(C)n[nH]c32)cn1 measure=pIC50 quantitative_readout=8.70
compound="Cc1nc(N2CC3CC3C2)ccc1Cn1cc(C(=O)N[C@@H]2CCc3c(C)n[nH]c32)c(C)n1 (stereo partly shown)" measure=pIC50 quantitative_readout=9.00
compound=Cc1nc(N2C[C@@H]3[C@H](C)[C@@H]3C2)ccc1Cn1cc(C(=O)N[C@@H]2CCc3c2n[nH]c3C)cn1 measure=pIC50 quantitative_readout=9.05
compound="Cc1nc(N2CC3CC3C2)ccc1Cn1cc(C(=O)N[C@@H]2CCc3c2n[nH]c3C)nc1Cl (stereo partly shown)" measure=pIC50 quantitative_readout=9.00

[A] COCc1nn(Cc2cnc(N3CC4CC4C3)nc2C)cc1C(=O)N[C@@H]1CCc2c(C)n[nH]c21 (stereo partly shown)
[B] Cc1nc(N2CC3CC3C2)ccc1Cn1cnc(C(=O)N[C@@H]2CCc3c2n[nH]c3C)n1 (stereo partly shown)
**Q:** Hey, between A and B which has a smaller measured pIC50? Record your answer as the label of the chosen record.
**A:** B
